# measurement_protocol: chemical genetic growth profiling, strain panel (AID 1159580);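 further: tested at 20 µM; growth read once vehicle control cultures reached saturation at 30 °C; 1 = growth at the plate median or of vehicle wells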
# applied_conditions: S. cerevisiae deletion strains, growth OD, locus YDL185W, strain tfp1, stronger effect = lower value
Screen size: about 5,500 compounds; about 2,000 (36%) were called active. About 18% were inconclusive and are not listed. The list shows a part of the results.
metric: normalized growth
One number for each entry.

Solved entries:
1. OC[C@H]1O[C@@](CO)(O[C@@H]2O[C@H](CO)[C@@H](O)[C@H](O)[C@H]2O)[C@@H](O[C@@H]2O[C@H](CO)[C@@H](O)[C@H](O)[C@H]2O)[C@@H]1O :: 1.01
2. CN(C)CCCN1c2ccccc2CCc2ccc(Cl)cc21 :: 0.984

Dear reader, for each entry below, please note its normalized growth.
1. CC(C)=CCc1c2c(c3occ(-c4ccc(O)cc4)c(=O)c3c1O)C=CC(C)(C)O2
2. OC[C@H]1O[C@@H](O[C@H]2[C@H](O)[C@@H](O)[C@@H](O)O[C@@H]2CO)[C@H](O)[C@@H](O)[C@@H]1O
3. CN(C)CCCN1c2ccccc2CCc2ccccc21
4. CN(C)CCCN1c2ccccc2Sc2ccccc21

Return:
0.995
1.02
0.993
1.01

Dear reader, for each entry below, please note its normalized growth.
1. CN(C)CCCN1c2ccccc2Sc2ccc(Cl)cc21
2. OC[C@H]1O[C@@H](O[C@@H]2[C@@H](CO)O[C@](O)(CO)[C@H]2O)[C@H](O)[C@@H](O)[C@H]1O

Return:
1: 1.01; 2: 0.992

###

# measurement_protocol: chemical genetic growth profiling, strain panel (AID 1159580)
# applied_conditions: S. cerevisiae deletion strains, growth OD, locus YLR258W, strain gsy2
About 2,000 (36%) of roughly 5,500 compounds were called active. Inconclusive results (about 18%) are left out. Cut-off read from the data, not from the text of the source: active = normalized growth mostly below about 0.91 (no sharp cut-off); inconclusive = no clear call, values can overlap the other calls; inactive = mostly above about 0.92. This is one part of the list.
Your response should consist of one outcome taken from active, inactive

Enquiry: What outcome does the record of this test show for C/C=C\C1=C(C(=O)O)N2C(=O)C(NC(=O)C(N)c3ccc(O)cc3)C2SC1 (configuration not stated) ?
Return: inactive

Enquiry: What outcome does the record of this test show for O=C(O)c1ccccc1 ?
Return: inactive

Enquiry: What outcome does the record of this test show for CC(C)CCCC(C)[C@H]1CCC2C3CC=C4C[C@@H](O)CC[C@]4(C)C3CC[C@@]21C (some centres not stated) ?
Return: inactive

Enquiry: What outcome does the record of this test show for Nc1ccc(C(=O)O)cc1 ?
Return: inactive

Enquiry: What outcome does the record of this test show for C=C1c2cccc(O)c2C(O)=C2C(=O)[C@]3(O)C(O)=C(C(N)=O)C(=O)[C@@H](N(C)C)[C@@H]3[C@@H](O)[C@H]12 ?
Return: inactive

Enquiry: What outcome does the record of this test show for CN[C@@H]1[C@H](O)[C@H](NC)[C@H]2O[C@@]3(O)C(=O)C[C@@H](C)O[C@H]3O[C@@H]2[C@H]1O ?
Return: inactive

Enquiry: What outcome does the record of this test show for CC(C)CCCC(C)C1CCC2C3C[C@@H](O)[C@@]4(O)C[C@@H](O)CC[C@]4(C)C3CC[C@]12C (some centres not stated) ?
Return: inactive

Enquiry: What outcome does the record of this test show for CS(=O)(=O)c1ccc([C@@H](O)[C@@H](CO)NC(=O)C(Cl)Cl)cc1 ?
Return: inactive

###

# measurement_protocol: chemical genetic growth profiling, strain panel (AID 1159580)
# applied_conditions: S. cerevisiae deletion strains, growth OD, locus YEL061C, strain CIN8 (second series), stronger effect = lower value
Out of some 5,500 compounds screened, about 2,000 (36%) were called active. About 18% were inconclusive and are not listed. The list shows a part of the results.
metric: normalized growth
Give bare numbers.

Solved entries:
1. CC(=O)N[C@@H](Cc1c[nH]c2ccccc12)C(N)=O :: 1.02
2. CN(C)[C@@H]1C(=O)C(C(=O)NCN2CCCC2)=C(O)[C@@]2(O)C(=O)C3=C(O)c4c(O)cccc4[C@@](C)(O)[C@H]3C[C@@H]12 :: 1.01
3. CN1CCN(C(=O)OC2c3nccnc3C(=O)N2c2ccc(Cl)cn2)CC1 (centres undefined) :: 0.993

Enquiry: Which value of normalized growth has been reported for CCC(C)[C@H]1O[C@]2(C=C[C@@H]1C)C[C@@H]1C[C@@H](C/C=C(\C)[C@@H](OC3C[C@H](OC)C(O[C@H]4C[C@H](OC)[C@@H](O)[C@H](C)O4)[C@H](C)O3)[C@@H](C)/C=C/C=C3\CO[C@@H]4[C@H](O)C(C)=C[C@@H](C(=O)O1)[C@]34O)O2 (some centres undefined) in the records?
Return: 0.973

###

# measurement_protocol: chemical genetic growth profiling, strain panel (AID 1159580)
# applied_conditions: S. cerevisiae deletion strains, growth OD, locus YNL161W, strain CBK1, stronger effect = lower value
About 2,000 (36%) of roughly 5,500 compounds were called active. Roughly 18% stayed inconclusive and do not appear here. The list shows a part of the results.
metric: normalized growth
Numbers only.

1) CSc1n[nH]c(-c2cc(C(C)(C)C)oc2C)c1C#N :: 0.948
2) CC(=O)c1ccc(Cl)c(N=Cc2cc(Br)cc(Br)c2O)c1 :: 0.0859
3) Cc1ccc2nc(-c3ccc4c(c3)OCCO4)cn2c1 :: 0.974

Would you kindly look at the next entry?
Enquiry: Which value of normalized growth has been reported for O=[N+]([O-])c1cccc(C2CC(c3ccccc3)=Nc3ccccc3S2)c1 (centres undefined) in the records?
Return: 0.957

###

# measurement_protocol: chemical genetic growth profiling, strain panel (AID 1159580);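 further: tested at 20 µM; growth read once vehicle control cultures reached saturation at 30 °C; 1 = growth at the plate median or of vehicle wells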
# applied_conditions: S. cerevisiae deletion strains, growth OD, locus YLR058C, strain SHM2, stronger effect = lower value
The whole screen tested about 5,500 compounds, of which about 2,000 (36%) were called active. Not shown: some 18% with an inconclusive outcome. The list shows a part of the results.
metric: normalized growth
Numbers only.

Solved entries:
1. CS(=O)(=O)c1ccc([C@@H](O)[C@@H](CO)NC(=O)C(Cl)Cl)cc1 :: 0.965
2. NCCCCCCNS(=O)(=O)c1cccc2c(Cl)cccc12 :: 0.988

Would you kindly look at the next entry?
Enquiry: Which value of normalized growth has been reported for O=C(O)C1=CCCNC1 in the records?
Return: 1.01

###

# measurement_protocol: chemical genetic growth profiling, strain panel (AID 1159580);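 further: tested at 20 µM; growth read once vehicle control cultures reached saturation at 30 °C; 1 = growth at the plate median or of vehicle wells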
# applied_conditions: S. cerevisiae deletion strains, growth OD, locus YMR058W, strain fet3, stronger effect = lower value
Out of some 5,500 compounds screened, about 2,000 (36%) were called active. Inconclusive results (about 18%) are left out. The list shows a part of the results.
metric: normalized growth
One number for each entry.

1. Nc1ccc(S(=O)(=O)NC(=O)c2ccccc2)cc1 :: 0.981
2. N=C(N)N :: 1
3. O=C(O)c1ccc(S(=O)(=O)N(Cl)Cl)cc1 :: 0.983

Dear reader, for each entry below, please note its normalized growth.
1. O=C(O)c1cccnc1
2. CCC(C)C(=O)OC1[C@@H]2CC3=C4CC(=O)O[C@@H](c5ccoc5)[C@]4(C)CCC3[C@@](C)(C2=O)[C@@H](CC(=O)OC)C1(C)C (some centres not stated)
3. COc1ccc2cc(CCC(C)=O)ccc2c1

Return:
1: 0.996; 2: 1.01; 3: 0.996

Dear reader, for each entry below, please note its normalized growth.
1. CCN1CCN(C(=O)NC(C(=O)N[C@@H]2C(=O)N3[C@@H]2SC(C)(C)[C@@H]3C(=O)O)c2ccccc2)C(=O)C1=O (some centres not stated)
2. CN(C)C(=O)Oc1cccc([N+](C)(C)C)c1
3. CC(=O)O[C@H]1CCC2(C)C3=C(CCC2C1(C)C)[C@@]1(C)CC[C@@H](C(C)CCC=C(C)C)[C@]1(C)CC3 (some centres not stated)

Return:
1: 1; 2: 1.01; 3: 1.03

###

# measurement_protocol: chemical genetic growth profiling, strain panel (AID 1159580);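 further: tested at 20 µM; growth read once vehicle control cultures reached saturation at 30 °C; 1 = growth at the plate median or of vehicle wells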
# applied_conditions: S. cerevisiae deletion strains, growth OD, locus YJL187C, strain SWE1 (second series)
The whole screen tested about 5,500 compounds, of which about 2,000 (36%) were called active. Another 18% or so got no clear call; they are omitted. No stated cut-off is given here; in the data, active means normalized growth mostly below about 0.91 (no sharp cut-off); inconclusive means no clear call, values can overlap the other calls; inactive means mostly above about 0.92. The list shows a part of the results.
Your response should consist of one outcome taken from 1.0 (active), 0.0 (inactive)

Enquiry: What outcome does the record of this test show for N=C(N)N ?
Return: 0.0

Enquiry: What outcome does the record of this test show for CC(CCC(=O)O)[C@H]1CCC2C3CC[C@@H]4CC(=O)CC[C@]4(C)C3C=C[C@@]21C (stereo partly specified) ?
Return: 0.0

Enquiry: What outcome does the record of this test show for NCC(=O)c1ccccc1 ?
Return: 0.0

Enquiry: What outcome does the record of this test show for NCCCCCCNS(=O)(=O)c1cccc2c(Cl)cccc12 ?
Return: 0.0

Enquiry: What outcome does the record of this test show for CC(CCc1ccccc1)NCC(O)c1ccc(O)c(C(N)=O)c1 (stereo unspecified) ?
Return: 0.0

Enquiry: What outcome does the record of this test show for CCN(CC)CCOC(=O)C1(C2CCCCC2)CCCCC1 ?
Return: 0.0

Enquiry: What outcome does the record of this test show for CC(Cc1cccc(C(F)(F)F)c1)NCCOC(=O)c1ccccc1 (stereo unspecified) ?
Return: 0.0

Enquiry: What outcome does the record of this test show for O=C(O)c1cc(O)c2c(c1)[C@@H]([C@H]1c3cc(C(=O)O)cc(O)c3C(=O)c3c(O[C@H]4O[C@H](CO)[C@@H](O)[C@H](O)[C@H]4O)cccc31)c1cccc(O[C@H]3O[C@H](CO)[C@@H](O)[C@H](O)[C@H]3O)c1C2=O ?
Return: 0.0

Enquiry: What outcome does the record of this test show for CS(=O)(=O)Nc1ccc([N+](=O)[O-])cc1Oc1ccccc1 ?
Return: 0.0

Enquiry: What outcome does the record of this test show for CC(=O)Oc1ccc(O)cc1 ?
Return: 0.0

Enquiry: What outcome does the record of this test show for CC(=O)c1ccc(O)c(CC=C(C)C)c1 ?
Return: 0.0

Enquiry: What outcome does the record of this test show for CC(=O)Oc1cccc(O)c1 ?
Return: 0.0

Enquiry: What outcome does the record of this test show for COC(=O)c1c(C)c2c(c(C)c1OC)OC(=O)c1c(C)c(Cl)c(OC)c(Cl)c1O2 ?
Return: 0.0

Enquiry: What outcome does the record of this test show for N[C@@H](CCC(=O)N[C@@H](CS)C(=O)NCC(=O)O)C(=O)O ?
Return: 0.0

Hey, just so you know, these numbers are from PubChem BioAssay AID1159580.
